# protocol_notes: Mean residence time in Wistar rat plasma at 10 mg/kg, ip
# Format: ADME, organism-based
# Design: dose 10 mg/kg, route intraperitoneal
readout_name: MRT (h)
Entry rule: numbers only, all in h.

For this molecule ( CCCCCCNC(=O)c1nn(-c2ccc(Cl)cc2Cl)c(-n2cccc2)c1C ), measured MRT is 14.8

----------
# protocol_notes: AUC in Wistar rat brain at 10 mg/kg, ip
# Assay type: ADME, organism-based
# Parameters: dose 10 mg/kg, route intraperitoneal
readout_name: AUC (ng·h/mL)
Entry rule: numbers only, all in ng·h/mL.

For this molecule ( CCCCCCNC(=O)c1nn(-c2ccc(Cl)cc2Cl)c(-n2cccc2)c1C ), measured AUC is 330

----------
# target_desc: Cannabinoid receptor 2 (Homo sapiens, UniProt P34972)
# Sequence (P34972 whole entry): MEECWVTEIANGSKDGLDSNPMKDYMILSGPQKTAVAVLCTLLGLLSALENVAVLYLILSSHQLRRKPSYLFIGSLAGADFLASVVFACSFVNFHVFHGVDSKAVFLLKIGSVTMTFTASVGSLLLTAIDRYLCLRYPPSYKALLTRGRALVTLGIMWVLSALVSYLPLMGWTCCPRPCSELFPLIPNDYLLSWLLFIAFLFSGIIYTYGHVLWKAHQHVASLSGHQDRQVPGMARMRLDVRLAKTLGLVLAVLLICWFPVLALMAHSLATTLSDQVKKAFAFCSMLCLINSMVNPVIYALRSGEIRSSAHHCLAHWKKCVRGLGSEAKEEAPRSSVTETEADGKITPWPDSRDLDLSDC
# protocol_notes: Displacement of [3H]CP-55,940 from recombinant human CB2 receptor transfected in HEK cells
Reported pKi values for the following compounds.
The value called pKi is obtained by taking minus log10 of the concentration in mol/L.

The cases that follow already have their pKi on record.
# compound, pKi
rows = [
    ("CCCCCCCNC(=O)c1nn(-c2ccc(Cl)cc2Cl)c(-n2c(C)ccc2C)c1C", 6.69),
    ("CCCCCCNC(=O)c1nn(-c2ccc(Cl)cc2Cl)c(-n2cccc2)c1C", 6.42),
    ("CCCCCCC(C)NC(=O)c1nn(-c2ccc(Cl)cc2Cl)c(-n2cccc2)c1C (centres undefined)", 6.62),
    ("CCCCNC(=O)c1nn(-c2ccc(Cl)cc2Cl)c(-n2c(C)ccc2C)c1C", 6.34),
]

Next up:
For this compound ( Cc1c(C(=O)NCCC(C)(C)C)nn(-c2ccc(Cl)cc2Cl)c1-n1c(C)ccc1C ), measured pKi is 6.87

----------
# protocol_notes: Tmax in Wistar rat brain at 10 mg/kg, ip
# Format: ADME, organism-based
# Design: dose 10 mg/kg, route intraperitoneal
readout_name: Tmax (min)
Entry rule: numbers only, all in min.

For this compound ( CCCCCCNC(=O)c1nn(-c2ccc(Cl)cc2Cl)c(-n2cccc2)c1C ), measured Tmax is 30

----------
# target_desc: UniProtKB P34972
# protocol_notes: Displacement of [3H]CP-55,940 from recombinant human CB2 receptor transfected in HEK cells
readout_name: pKi
The value called pKi is obtained by taking minus log10 of the concentration in mol/L.

I looked up CCCCCCCNC(=O)c1nn(-c2ccc(Cl)cc2Cl)c(-n2cccc2)c1C and its pKi for UniProtKB P34972 was 6.59

I looked up Cc1c(C(=O)NC(C)(C)C)nn(-c2ccc(Cl)cc2Cl)c1-n1cccc1 and its pKi for UniProtKB P34972 was 7.84

----------
# protocol_notes: Tmax in Wistar rat plasma at 10 mg/kg, ip
# Type: ADME, organism-based
# Set-up: dose 10 mg/kg, route intraperitoneal
readout_name: Tmax (min)
Entry rule: numbers only, all in min.

For this compound ( CCCCCCNC(=O)c1nn(-c2ccc(Cl)cc2Cl)c(-n2cccc2)c1C ), measured Tmax is 30

----------
# protocol_notes: AUC (last) in Wistar rat plasma at 10 mg/kg, ip
# Type: ADME, organism-based
# Design: dose 10 mg/kg, route intraperitoneal, time 0 - last
readout_name: AUC(0-t)
Returns: string containing the number followed by the unit.

For this molecule ( CCCCCCNC(=O)c1nn(-c2ccc(Cl)cc2Cl)c(-n2cccc2)c1C ), measured AUC(0-t) is 340 ng·h/mL

----------
# protocol_notes: Half life in Wistar rat brain at 10 mg/kg, ip
# Format: ADME, organism-based
# Parameters: dose 10 mg/kg, route intraperitoneal
readout_name: half-life (h)
Entry rule: numbers only, all in h.

For this molecule ( CCCCCCNC(=O)c1nn(-c2ccc(Cl)cc2Cl)c(-n2cccc2)c1C ), measured half-life is 14.4

----------
# target_desc: Cannabinoid receptor 2 (Homo sapiens, UniProt P34972)
# protocol_notes: Displacement of [3H]CP-55,940 from recombinant human CB2 receptor transfected in HEK cells
# Format: cell-based, HEK293
readout_name: pKi
The value called pKi is obtained by taking minus log10 of the concentration in mol/L.

# molecule, quantitative_result
rows = [
    ("CCC(C)(C)NC(=O)c1nn(-c2ccc(Cl)cc2Cl)c(-n2c(C)ccc2C)c1C", 6.92),
]

For this molecule ( CCCCCNC(=O)c1nn(-c2ccc(Cl)cc2Cl)c(-n2c(C)ccc2C)c1C ), measured pKi is 6.31

For this molecule ( CCCCCCC(C)NC(=O)c1nn(-c2ccc(Cl)cc2Cl)c(-n2c(C)ccc2C)c1C (stereo not given) ), measured pKi is 6.87

For this molecule ( Cc1c(C(=O)NCCC(C)(C)C)nn(-c2ccc(Cl)cc2Cl)c1-n1cccc1 ), measured pKi is 7.28

For this molecule ( Cc1c(C(=O)NCCCCCO)nn(-c2ccc(Cl)cc2Cl)c1-n1cccc1 ), measured pKi is 5.63

----------
# target_desc: Cannabinoid receptor 1 (Homo sapiens)
# Sequence (P21554 whole entry): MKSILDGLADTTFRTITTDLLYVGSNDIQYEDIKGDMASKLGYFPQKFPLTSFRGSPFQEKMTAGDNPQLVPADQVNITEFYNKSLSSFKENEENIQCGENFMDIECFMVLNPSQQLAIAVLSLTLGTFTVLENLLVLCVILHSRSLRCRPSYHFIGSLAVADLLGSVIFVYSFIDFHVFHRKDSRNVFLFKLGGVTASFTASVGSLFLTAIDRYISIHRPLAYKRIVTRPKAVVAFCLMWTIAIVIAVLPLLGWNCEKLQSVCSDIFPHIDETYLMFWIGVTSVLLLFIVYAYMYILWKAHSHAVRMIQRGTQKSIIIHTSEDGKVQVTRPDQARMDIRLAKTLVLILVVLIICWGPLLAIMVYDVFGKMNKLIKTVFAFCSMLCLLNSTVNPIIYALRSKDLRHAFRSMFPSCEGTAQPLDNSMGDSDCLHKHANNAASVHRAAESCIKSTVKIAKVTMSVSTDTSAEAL
Each entry falls into one class according to its Ki; the ranges are lower segment (below 100 nM), middle segment (100 nM to below 300 nM), upper segment (300 nM or more)

# compound, class
records = [
    ("Cc1c(C(=O)NC(C)(C)C)nn(-c2ccc(Cl)cc2Cl)c1-n1cccc1", "lower segment"),
    ("CCCCCNC(=O)c1nn(-c2ccc(Cl)cc2Cl)c(-n2cccc2)c1C", "lower segment"),
    ("CCCCCCNC(=O)c1nn(-c2ccc(Cl)cc2Cl)c(-n2cccc2)c1C", "middle segment"),
    ("CCC(C)(C)NC(=O)c1nn(-c2ccc(Cl)cc2Cl)c(-n2c(C)ccc2C)c1C", "middle segment"),
    ("CCCNC(=O)c1nn(-c2ccc(Cl)cc2Cl)c(-n2cccc2)c1C", "upper segment"),
    ("CCCCCCCNC(=O)c1nn(-c2ccc(F)cc2F)c(-n2c(C)ccc2C)c1C", "upper segment"),
    ("CCCCNC(=O)c1nn(-c2ccc(Cl)cc2Cl)c(-n2c(C)ccc2C)c1C", "middle segment"),
    ("Cc1c(C(=O)NCCCCCO)nn(-c2ccc(Cl)cc2Cl)c1-n1c(C)ccc1C", "upper segment"),
    ("CCCCCNC(=O)c1nn(-c2ccc(Cl)cc2Cl)c(-n2c(C)ccc2C)c1C", "middle segment"),
    ("CCC(C)(C)NC(=O)c1nn(-c2ccc(Cl)cc2Cl)c(-n2cccc2)c1C", "lower segment"),
]

Problem: Classify this compound: CCCCCCCNC(=O)c1nn(-c2ccc(Cl)cc2Cl)c(-n2cccc2)c1C
Solution: middle segment

Problem: Classify this compound: Cc1c(C(=O)NCCC(C)(C)C)nn(-c2ccc(F)cc2F)c1-n1c(C)ccc1C
Solution: lower segment

Problem: Classify this compound: Cc1c(C(=O)NCCCCCO)nn(-c2ccc(Cl)cc2Cl)c1-n1cccc1
Solution: upper segment

Problem: Classify this compound: CCCCCCC(C)NC(=O)c1nn(-c2ccc(Cl)cc2Cl)c(-n2cccc2)c1C (configuration not stated)
Solution: middle segment

Problem: Classify this compound: CCCCNC(=O)c1nn(-c2ccc(Cl)cc2Cl)c(-n2cccc2)c1C
Solution: middle segment

Problem: Classify this compound: Cc1c(C(=O)NC(C)C)nn(-c2ccc(Cl)cc2Cl)c1-n1c(C)ccc1C
Solution: middle segment

----------
# target_desc: Cannabinoid receptor 2 (Homo sapiens, UniProt P34972)
# protocol_notes: Displacement of [3H]CP-55,940 from recombinant human CB2 receptor transfected in HEK cells
readout_name: Ki (µM)
Entry rule: numbers only, all in µM.

For this molecule ( Cc1c(C(=O)NCCC(C)(C)C)nn(-c2ccc(F)cc2F)c1-n1c(C)ccc1C ), measured Ki is 0.163

For this molecule ( CCCNC(=O)c1nn(-c2ccc(Cl)cc2Cl)c(-n2c(C)ccc2C)c1C ), measured Ki is 1.95

For this molecule ( CCCNC(=O)c1nn(-c2ccc(Cl)cc2Cl)c(-n2cccc2)c1C ), measured Ki is 1.5

For this molecule ( Cc1c(C(=O)NCCCCCO)nn(-c2ccc(Cl)cc2Cl)c1-n1c(C)ccc1C ), measured Ki is 3.2

----------
# target_desc: Cannabinoid receptor 2 (Homo sapiens)
# protocol_notes: Displacement of [3H]CP-55,940 from recombinant human CB2 receptor transfected in HEK cells
pKi: −log10 of the molar value.
Returns class 1 if the recorded pKi is greater than or equal to 6, and class 0 otherwise.

// known answers, use as guide
# chemical_string, class
records = [
    ("CCCCCNC(=O)c1nn(-c2ccc(Cl)cc2Cl)c(-n2cccc2)c1C", "class 1"),
    ("CCC(C)(C)NC(=O)c1nn(-c2ccc(Cl)cc2Cl)c(-n2cccc2)c1C", "class 1"),
    ("CCCCCCCNC(=O)c1nn(-c2ccc(F)cc2F)c(-n2c(C)ccc2C)c1C", "class 1"),
    ("Cc1c(C(=O)NC(C)C)nn(-c2ccc(Cl)cc2Cl)c1-n1c(C)ccc1C", "class 0"),
    ("CCCCCCNC(=O)c1nn(-c2ccc(F)cc2F)c(-n2c(C)ccc2C)c1C", "class 1"),
]

Now consider a different compound.
Problem: Answer whether pKi of Cc1c(C(=O)NC(C)(C)C)nn(-c2ccc(Cl)cc2Cl)c1-n1c(C)ccc1C is greater than or equal to 6.
Solution: class 1
